- measurement description: Biodistribution in HEK-uPAR xenografted nude mice
- setup conditions: CD1 nude, mouse, spleen, 0.5 nmol/mouse, total radioactivity, Spleen uptake, 1 h p.i.; decay-corrected
property name: tissue uptake at 1 h (%ID/g)
Give the quantity in %ID/g, number only.

Problem: Give its tissue uptake at 1 h value. Item: CC(C)C[C@H](NC(=O)[C@H](Cc1ccc(O)cc1)NC(=O)[C@@H](CCCNC(=N)N)NC(=O)[C@@H](CO)NC(=O)[C@H](Cc1ccccc1)NC(=O)[C@H](CC1CCCCC1)NC(=O)[C@H](CC(=O)O)NC(=O)CN1CCN(CC(=O)O)CCN(CC(=O)O)CCN(CC(=O)O)CC1)C(=O)N[C@@H](Cc1c[nH]c2ccccc12)C(=O)N[C@@H](CO)C(N)=O [[^177Lu]Lu-DOTA-AE105, metal not drawn]
Result: 0.47

----------
- Assay type: in vitro ADME
- setup conditions: 24 h, 1 µM
property name: Human blood plasma stability, intact radiopeptide (%)
Enter your answer as a number in %; do not include the unit.

Problem: Please report the recorded Human blood plasma stability, intact radiopeptide for Cc1ccc(CCCC(=O)NCCOCCOCCOCCOCCC(=O)NCCCC[C@H](NC(=O)CN2CCN(CC(=O)O)CCN(CC(=O)O)CCN(CC(=O)O)CC2)C(=O)N[C@@H](CC(=O)O)C(=O)N[C@@H](CC2CCCCC2)C(=O)N[C@@H](Cc2ccccc2)C(=O)N[C@H](CO)C(=O)N[C@H](CCCNC(=N)N)C(=O)N[C@@H](Cc2ccc(O)cc2)C(=O)N[C@@H](CC(C)C)C(=O)N[C@@H](Cc2c[nH]c3ccccc23)C(=O)N[C@@H](CO)C(N)=O)cc1 [[^177Lu]Lu-uPAR-11, metal not drawn] .
Result: 95

----------
The following compounds are shown together with reported Human blood plasma stability, intact radiopeptide values.
- Format: in vitro ADME
- setup conditions: 1 h, 1 µM
Answer format: numeric, % implied, no suffix.

See these solved cases before continuing.
[[record]]
compound = "Cc1ccc(CCCC(=O)NCCOCCOCCOCCOCCC(=O)NCCCC[C@H](NC(=O)CC[C@H](C(=O)O)N2CCN(CC(=O)O)CCN(CC(=O)O)CCN(CC(=O)O)CC2)C(=O)N[C@@H](CC(=O)O)C(=O)N[C@@H](CC2CCCCC2)C(=O)N[C@@H](Cc2ccccc2)C(=O)N[C@H](CO)C(=O)N[C@H](CCCNC(=N)N)C(=O)N[C@@H](Cc2ccc(O)cc2)C(=O)N[C@@H](CC(C)C)C(=O)N[C@@H](Cc2c[nH]c3ccccc23)C(=O)N[C@@H](CO)C(N)=O)cc1 [[^177Lu]Lu-uPAR-17, metal not drawn]"
readout_unit = "%"
val = 100

[[record]]
compound = "Cc1ccc(CCCC(=O)NCCCCCCCC(=O)NCCCC[C@H](NC(=O)CN2CCN(CC(=O)O)CCN(CC(=O)O)CCN(CC(=O)O)CC2)C(=O)N[C@@H](CC(=O)O)C(=O)N[C@@H](CC2CCCCC2)C(=O)N[C@@H](Cc2ccccc2)C(=O)N[C@H](CO)C(=O)N[C@H](CCCNC(=N)N)C(=O)N[C@@H](Cc2ccc(O)cc2)C(=O)N[C@@H](CC(C)C)C(=O)N[C@@H](Cc2c[nH]c3ccccc23)C(=O)N[C@@H](CO)C(N)=O)cc1 [[^177Lu]Lu-uPAR-12, metal not drawn]"
readout_unit = "%"
val = 100


Please look at the following compound next.
Problem: Looking for the measured Human blood plasma stability, intact radiopeptide of Cc1ccc(CCCC(=O)NCCOCCOCCOCCC(=O)NCCCC[C@H](NC(=O)CN2CCN(CC(=O)O)CCN(CC(=O)O)CCN(CC(=O)O)CC2)C(=O)N[C@@H](CC(=O)O)C(=O)N[C@@H](CC2CCCCC2)C(=O)N[C@@H](Cc2ccccc2)C(=O)N[C@H](CO)C(=O)N[C@H](CCCNC(=N)N)C(=O)N[C@@H](Cc2ccc(O)cc2)C(=O)N[C@@H](CC(C)C)C(=O)N[C@@H](Cc2c[nH]c3ccccc23)C(=O)N[C@@H](CO)C(N)=O)cc1 [[^177Lu]Lu-uPAR-15, metal not drawn] , can you help?
Result: 100

----------
- Assay type: in vitro ADME
- setup conditions: 4 h, 1 µM
Listed below: Human blood plasma stability, intact radiopeptide values for each entry.
Don't forget the unit after the number, please.

[[record]]
molecule = "Cc1ccc(CCCC(=O)NCCOCCOCCOCCOCCC(=O)NCCCC[C@H](NC(=O)CC[C@H](C(=O)O)N2CCN(CC(=O)O)CCN(CC(=O)O)CCN(CC(=O)O)CC2)C(=O)N[C@@H](CC(=O)O)C(=O)N[C@@H](CC2CCCCC2)C(=O)N[C@@H](Cc2ccccc2)C(=O)N[C@H](CO)C(=O)N[C@H](CCCNC(=N)N)C(=O)N[C@@H](Cc2ccc(O)cc2)C(=O)N[C@@H](CC(C)C)C(=O)N[C@@H](Cc2c[nH]c3ccccc23)C(=O)N[C@@H](CO)C(N)=O)cc1 [[^177Lu]Lu-uPAR-17, metal not drawn]"
val = "99 ± 1%"


Problem: Record request: Human blood plasma stability, intact radiopeptide value, item Cc1ccc(CCCC(=O)NCCOCCOCCOCCC(=O)NCCCC[C@H](NC(=O)CN2CCN(CC(=O)O)CCN(CC(=O)O)CCN(CC(=O)O)CC2)C(=O)N[C@@H](CC(=O)O)C(=O)N[C@@H](CC2CCCCC2)C(=O)N[C@@H](Cc2ccccc2)C(=O)N[C@H](CO)C(=O)N[C@H](CCCNC(=N)N)C(=O)N[C@@H](Cc2ccc(O)cc2)C(=O)N[C@@H](CC(C)C)C(=O)N[C@@H](Cc2c[nH]c3ccccc23)C(=O)N[C@@H](CO)C(N)=O)cc1 [[^177Lu]Lu-uPAR-15, metal not drawn]
Result: 99 ± 1%

----------
- measurement description: in vivo
- setup conditions: CD1 nude, mouse, 0.5 nmol/mouse, total radioactivity, Intestines uptake
property name: tissue uptake at 4 h (%ID/g)
Numbers only here, please. The scale is %ID/g.

Problem: Given the molecule Cc1ccc(CCCC(=O)NCCOCCOCCOCCC(=O)NCCCC[C@H](NC(=O)CN2CCN(CC(=O)O)CCN(CC(=O)O)CCN(CC(=O)O)CC2)C(=O)N[C@@H](CC(=O)O)C(=O)N[C@@H](CC2CCCCC2)C(=O)N[C@@H](Cc2ccccc2)C(=O)N[C@H](CO)C(=O)N[C@H](CCCNC(=N)N)C(=O)N[C@@H](Cc2ccc(O)cc2)C(=O)N[C@@H](CC(C)C)C(=O)N[C@@H](Cc2c[nH]c3ccccc23)C(=O)N[C@@H](CO)C(N)=O)cc1 [[^177Lu]Lu-uPAR-15, metal not drawn] , what is its reported tissue uptake at 4 h?
Result: 0.74

Problem: Another molecule: Cc1ccc(CCCC(=O)NCCOCCOCCOCCOCCC(=O)NC[C@H](NC(=O)CN2CCN(CC(=O)O)CCN(CC(=O)O)CCN(CC(=O)O)CC2)C(=O)N[C@@H](CC(=O)O)C(=O)N[C@@H](CC2CCCCC2)C(=O)N[C@@H](Cc2ccccc2)C(=O)N[C@H](CO)C(=O)N[C@H](CCCNC(=N)N)C(=O)N[C@@H](Cc2ccc(O)cc2)C(=O)N[C@@H](CC(C)C)C(=O)N[C@@H](Cc2c[nH]c3ccccc23)C(=O)N[C@@H](CO)C(N)=O)cc1 [[^177Lu]Lu-uPAR-14, metal not drawn]
Result: 0.81

Problem: Moving on to the next molecule: Cc1ccc(CCCC(=O)NCCOCCOCCOCCOCCOCCC(=O)NCCCC[C@H](NC(=O)CN2CCN(CC(=O)O)CCN(CC(=O)O)CCN(CC(=O)O)CC2)C(=O)N[C@@H](CC(=O)O)C(=O)N[C@@H](CC2CCCCC2)C(=O)N[C@@H](Cc2ccccc2)C(=O)N[C@H](CO)C(=O)N[C@H](CCCNC(=N)N)C(=O)N[C@@H](Cc2ccc(O)cc2)C(=O)N[C@@H](CC(C)C)C(=O)N[C@@H](Cc2c[nH]c3ccccc23)C(=O)N[C@@H](CO)C(N)=O)cc1 [[^177Lu]Lu-uPAR-18, metal not drawn]
Result: 0.58

Problem: # repeat for Cc1ccc(CCCC(=O)NCCCCCCCC(=O)NCCCC[C@H](NC(=O)CN2CCN(CC(=O)O)CCN(CC(=O)O)CCN(CC(=O)O)CC2)C(=O)N[C@@H](CC(=O)O)C(=O)N[C@@H](CC2CCCCC2)C(=O)N[C@@H](Cc2ccccc2)C(=O)N[C@H](CO)C(=O)N[C@H](CCCNC(=N)N)C(=O)N[C@@H](Cc2ccc(O)cc2)C(=O)N[C@@H](CC(C)C)C(=O)N[C@@H](Cc2c[nH]c3ccccc23)C(=O)N[C@@H](CO)C(N)=O)cc1 [[^177Lu]Lu-uPAR-12, metal not drawn]
Result: 1.5

Problem: Next up: Cc1ccc(CCCC(=O)NCCOCCOCCOCCOCCC(=O)NCCCC[C@H](NC(=O)CN2CCN(CC(=O)O)CCN(CC(=O)O)CCN(CC(=O)O)CC2)C(=O)N[C@@H](CC(=O)O)C(=O)N[C@@H](CC2CCCCC2)C(=O)N[C@@H](Cc2ccccc2)C(=O)N[C@H](CO)C(=O)N[C@H](CCCNC(=N)N)C(=O)N[C@@H](Cc2ccc(O)cc2)C(=O)N[C@@H](CC(C)C)C(=O)N[C@@H](Cc2c[nH]c3ccccc23)C(=O)N[C@@H](CO)C(N)=O)cc1 [[^177Lu]Lu-uPAR-11, metal not drawn]
Result: 0.93
